- Test system: HT-29
- test details: Growth inhibition of human HT-29 cells overexpressing VDR gene after 72 hrs by MTS assay
- Format: functional
- condition parameters: HT-29, 72 h

structure	GI50
C=C1CCC=C/C1=C/C=C1\CCC[C@]2(C)[C@@H]([C@H](C)CCCC(C)C)CC[C@@H]12	> 100 µM
C=C1CC[C@H](O)C/C1=C/C=C1\CCC[C@]2(C)[C@@H]([C@H](C)CO)CC[C@@H]12	> 100 µM
C=C1CC[C@H](O)C/C1=C\C=C1/CCC[C@]2(C)[C@@H]([C@H](C)CCCC(C)C)CC[C@@H]12	> 100 µM
